These measurements were taken from patent US20080075786A1.

- protocol.details: Cytotoxicity assay (LDH release)
- condition.parameters: human
measurement.name: CC50 at 24 h (µM)
Answers are plain numbers, in µM.

*Q* Could you tell me which CC50 at 24 h is on file for CC(C)CCCCCCCCCC(=O)O ?
*A* 70

====

Record form. Attribute: MIC. Fill in for each entry.
- Test system: Candida albicans SC5314 strain
- protocol.details: Germination inhibition assay (antihyphal growth activity)
- Format: cell-based
- condition.parameters: Candida albicans, SC5314; same MIC in μg/ml (in brackets); commercial free fatty acids; gravimetrical quantification; read-out: MIC, antihyphal growth activity of individual free fatty acids
Answers are plain numbers, in µg/mL.

Worked set:
CCCCC/C=C\C/C=C\CCCCCCCC(=O)O : 22.7
CCCCCC/C=C\CCCCCCCC(=O)O : 2.29
CCCC/C=C\CCCCCCCC(=O)O : 2.04
CCCCCCCCCCCC(=O)O : 1.8
CCCCC/C=C\C/C=C\C/C=C\C/C=C\CCCC(=O)O : 8.22

Here is the next item to consider.
*Q* Which value of MIC has been reported for CCCCCCCCCC(=O)O in the records?
*A* 1.55
